Task for the reader: assign each of the following molecules its reported inhibition.
- TESTED TARGET: Tyrosine-protein phosphatase non-receptor type 1 (Homo sapiens)
- EXPERIMENT NOTES: Inhibition of PTP1B assessed as p-nitrophenolate ions release at 100 uM
Return type: number; implicit unit %.

Query: Look at this molecule and give its reported inhibition. COc1ccccc1N1CCN(CC(O)COc2ccc(C#N)cc2)CC1 (stereo unspecified)
Result: 2.6

Query: Query O=[N+]([O-])c1ccc(N2CCN(CC(O)COc3ccc(Cl)cc3)CC2)cc1 (stereo unspecified) next
Result: 35.9

Query: Query CN1CCN(CC(O)COc2ccc(Cl)cc2)CC1 (stereo unspecified) next
Result: 2.4

Query: Query N#Cc1ccc(OCC(O)CN2CCN(c3ccc(F)cc3)CC2)cc1 (stereo unspecified) next
Result: 3.6

Query: Query COc1ccc(N2CCN(CC(O)COc3ccc(Cl)cc3)CC2)cc1 (stereo unspecified) next
Result: 9.21

Query: Query Cc1ccc(N2CCN(CC(O)COc3ccc(C#N)cc3)CC2C)cc1 (stereo unspecified) next
Result: 31.6

Query: Query N#Cc1ccc(OCC(O)CN2CCN(c3cccc(Cl)c3)CC2)cc1 (stereo unspecified) next
Result: 1.5

Query: Query OC(COc1ccc(Cl)cc1)CN1CCN(C/C=C/c2ccccc2)CC1 (stereo unspecified) next
Result: 7.63

Query: Query OC(COc1ccc(Cl)cc1)CN1CCN(c2ccc(Cl)c(Cl)c2)CC1 (stereo unspecified) next
Result: 24.6

Query: Query N#Cc1ccc(OCC(O)CN2CCN(c3ccccc3)CC2)cc1 (stereo unspecified) next
Result: 4.6

Query: Query N#Cc1ccc(OCC(O)CN2CCN(c3ccccn3)CC2)cc1 (stereo unspecified) next
Result: 1.8
